assay: Volume of distribution at steady state in monkey; assay type: ADME, organism-based, Macaca mulatta; settings: rhesus monkey, in vivo; read-out: Vdss
Attribute measured: Vd (L/kg)
// return numeric value only (unit: L/kg, not printed)

What Vd value was documented for this compound, `Cc1ccncc1-c1nn(C)c2nc(OCc3ccccn3)cnc12` ?
0.69

---

experiment: Oral bioavailability in monkey at 30 mg/kg; format: ADME, organism-based, Macaca mulatta; details: rhesus monkey, in vivo
Attribute measured: bioavailability (%)
// return numeric value only (unit: %, not printed)

What bioavailability value was documented for this molecule, `Cc1ccncc1-c1nn(C)c2nc(OCc3ccccn3)cnc12` ?
67

---

Overview of recorded Papp A→B for various compounds
assay: Apparent passive permeability from apical to basolateral side in dog RRCK cells; format: ADME, cell-based, Canis lupus familiaris, MDCKII-LE; details: MDCK
// return numeric value only (unit: ×10⁻⁶ cm/s, not printed)

As a guide, the following entries are already answered.
{"columns": ["Compound", "Papp A→B, ×10⁻⁶ cm/s"],
 "data": [
  ["Cn1nc(-c2ccccc2)c2ccc(OCc3ccccn3)nc21", 0.78],
  ["Cn1nc(-c2ccccn2)c2ccc(OCc3ccccn3)nc21", 11.7],
  ["CCn1nc(-c2cnccc2C)c2ncc(OCc3ccccn3)nc21", 13.8],
  ["Cc1ccnnc1-c1nn(C)c2nc(OCc3ccccn3)cnc12", 21.5],
  ["CCC(C)NC(=O)c1nn(C)c2nc(OCc3cccc(C)n3)ccc12 (stereo unspecified)", 19.8],
  ["Cc1cccnc1-c1nn(C)c2nc(OCc3ccccn3)cnc12", 28.5],
  ["Cc1c(-c2nn(C)c3nc(OCc4ccccn4)cnc23)cnn1C", 14.4],
  ["C[C@@H]1CCCN1C(=O)c1nn(C)c2nc(OCc3ccccn3)ccc12", 21],
  ["Cc1ccncc1-c1nn(C2CC2)c2nc(OCc3ccccn3)cnc12", 19.6],
  ["Cc1c(Cl)cncc1-c1nn(C)c2nc(OCc3ccccn3)cnc12", 14.1]
]}

What Papp A→B value was documented for this compound, `Cn1nc(-c2cnccc2C(F)(F)F)c2ncc(OCc3ccccn3)nc21` ?
21.4

What Papp A→B value was documented for this compound, `Cc1ccncc1-c1nn(C)c2nc(OCc3ccccn3)cnc12` ?
21

What Papp A→B value was documented for this compound, `Cn1nc(-c2cccnc2)c2ccc(OCc3ccccn3)nc21` ?
24.4
